Kindly state IC50 for each of the entries shown.
Test system: HT-29
experiment-description: Cytotoxicity against human HT-29 cells assessed as inhibition of cell growth incubated for 72 hrs by MTT assay
Format: functional, cell-based
assay-context: HT-29, 72 h

molecule	IC50
CC[C@]12CCCN[C@]13/C(=C\C(=O)O)c1ccccc1N3C(=O)CC2	> 10 µM
CC[C@]12CCCN(C1)C(=O)CC2	7.2 µM
CC[C@]1(CCC(=O)OC)CCCNC1	> 10 µM
CC[C@@]12CCC[N+]3([O-])CC[C@@]4(C(=Nc5ccccc54)[C@@H](O)C1)[C@@H]23 (stereo partly drawn)	> 10 µM
COC(=O)[C@H]1CO[C@H](C)[C@]2(O)C[N@+]3([O-])CCc4c([nH]c5ccccc45)[C@@H]3C[C@H]12	> 10 µM

List reported IC50 for each of these molecules:
1. COc1cccc2c1C(=O)c1c(O)c3c(c(O)c1C2=O)C[C@@](O)(C(=O)CO)C[C@@H]3O[C@H]1C[C@H](N)[C@H](O)[C@H](C)O1
2. CC[C@@]12CCO[C@@H]1N(CC[C@]1(O)C(=O)Nc3ccccc31)CC[C@H]2O
3. CC[C@@]12CCC[N@@+]3([O-])C[C@@H]4[C@@](O)(c5ccccc5N[C@]4(O)CC1)[C@@H]23

Solution:
1: 0.06 µM; 2: > 10 µM; 3: 7.1 µM
